Give tubulin polymerization inhibited for every item shown.
# Test system: Bovine brain tubulin
# ASSAY_INFO: In vitro tubulin polymerization assay
# Type: biochemical
# MEASUREMENT_CONTEXT: 10 µM, 20 min incubation, compared to vehicle
Write down the numeric answer in % and omit the unit.

Field request: tubulin polymerization inhibited | item: "COc1cc(C(=O)c2csc(Nc3ccccc3)n2)cc(OC)c1OC"
78

Field request: tubulin polymerization inhibited | item: "COc1cc(C(=NC#N)c2csc(-c3ccccc3)n2)cc(OC)c1OC"
64

Field request: tubulin polymerization inhibited | item: "COc1cc(C(=O)c2csc(-c3ccccc3)n2)cc(OC)c1OC"
47

Field request: tubulin polymerization inhibited | item: COc1cc(C(=O)c2csc(-c3ccc4[nH]ccc4c3)n2)cc(OC)c1OC [66a]
81

* * *

# ASSAY_INFO: in vivo
# MEASUREMENT_CONTEXT: rat, plasma, po, 10 mg/kg
REPORTED_ENDPOINT: Cmax
Units required after the number.

Field request: Cmax | item: COc1cc(C(=O)c2c[nH]c(-c3ccc(Cl)cc3)n2)cc(OC)c1OC [12fa]
1110 ng/mL

* * *

# Tested on: PC-3
# ASSAY_INFO: cells
# MEASUREMENT_CONTEXT: Homo sapiens, PC-3, 96 h, read-out: IC50 (nM), PC-3
REPORTED_ENDPOINT: IC50

Field request: IC50 | item: O=S(=O)(c1ccccc1)n1ccnc1-c1ccc(OCc2ccccc2)cc1 [10j]
> 10000 nM

Field request: IC50 | item: COc1cc(C(=O)c2c[nH]c(-c3ccccc3)n2)cc(OC)c1OC [12aa]
288 nM

Field request: IC50 | item: COc1ccc(C(=O)c2c[nH]c(-c3ccccc3)n2)cc1 [12ab]
> 10000 nM

Field request: IC50 | item: COc1cc(OC)cc(C(=O)c2c[nH]c(-c3ccccc3)n2)c1 [12ad]
3270 nM

Field request: IC50 | item: O=C(c1ccc(F)cc1)c1c[nH]c(-c2ccccc2)n1 [12af]
2200 nM

Field request: IC50 | item: Cc1ccc(C(=O)c2c[nH]c(-c3ccccc3)n2)cc1 [12ah]
> 10000 nM

Field request: IC50 | item: O=S(=O)(c1ccccc1)n1ccnc1-c1ccccc1 [10a, 2-phenyl-1-(phenylsulfonyl)-1H-imidazole]
> 10000 nM

Field request: IC50 | item: COc1cccc(C(=O)c2c[nH]c(-c3ccccc3)n2)c1 [12ac]
> 10000 nM

* * *

# Test system: DU 145
# ASSAY_INFO: cells
# MEASUREMENT_CONTEXT: Homo sapiens, DU-145, 96 h, read-out: IC50 ± SEM (nM), DU 145
REPORTED_ENDPOINT: IC50 (nM)
Write down the numeric answer in nM and omit the unit.

Field request: IC50 | item: COc1cc(C(=O)c2ccc(-c3ccccc3)o2)cc(OC)c1OC [1d]
35

Field request: IC50 | item: COc1cc(/C(=N/N)c2csc(-c3ccccc3)n2)cc(OC)c1OC [2d-cis]
1210

* * *

# System: WM-164
# ASSAY_INFO: SRB cell growth inhibition (cytotoxicity) assay
# Assay type: cell-based, human
# MEASUREMENT_CONTEXT: Homo sapiens, WM164; Table 14B, n=3; read-out: IC50 ± SEM (nmol/L) WM-164
REPORTED_ENDPOINT: pIC50
Scale for pIC50: -log10 of concentration given in mol/L; no unit attached.

Entry "COc1ccc(S(=O)(=O)Nc2cccnc2Nc2ccc(O)cc2)cc1" , system WM-164: what pIC50 was measured?
6.18
